As an illustration, consider measured Ki for compounds on TfQC (Tannerella forsythia, UniProt G8UMP8).
Sequence (G8UMP8 entry or part of it): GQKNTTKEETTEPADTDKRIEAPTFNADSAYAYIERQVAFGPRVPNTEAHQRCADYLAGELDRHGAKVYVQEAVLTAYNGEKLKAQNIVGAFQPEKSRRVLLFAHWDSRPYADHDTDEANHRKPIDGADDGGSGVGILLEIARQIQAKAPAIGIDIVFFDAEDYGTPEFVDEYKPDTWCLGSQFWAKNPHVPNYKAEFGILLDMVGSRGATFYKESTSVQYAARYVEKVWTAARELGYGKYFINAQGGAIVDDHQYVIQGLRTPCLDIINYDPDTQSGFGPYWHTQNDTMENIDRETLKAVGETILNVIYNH
Express the result in µM but write the number alone.

Some solved cases for reference:
- Cpd Smiles: "c1ccc(Cn2ccnc2)cc1"
  Units Symbol: "µM"
  Ki: 6.45
- Cpd Smiles: "c1c[nH]cn1"
  Units Symbol: "µM"
  Ki: 280

Alright, here's another compound for you.
Q. Recorded Ki for c1ccc2[nH]cnc2c1 with TfQC (Tannerella forsythia, UniProt G8UMP8), please?
A. 170

---

Each item that follows carries a reported Ki.
# Tested Target: HsQC (Homo sapiens)
# Sequence (Q16769 29-361): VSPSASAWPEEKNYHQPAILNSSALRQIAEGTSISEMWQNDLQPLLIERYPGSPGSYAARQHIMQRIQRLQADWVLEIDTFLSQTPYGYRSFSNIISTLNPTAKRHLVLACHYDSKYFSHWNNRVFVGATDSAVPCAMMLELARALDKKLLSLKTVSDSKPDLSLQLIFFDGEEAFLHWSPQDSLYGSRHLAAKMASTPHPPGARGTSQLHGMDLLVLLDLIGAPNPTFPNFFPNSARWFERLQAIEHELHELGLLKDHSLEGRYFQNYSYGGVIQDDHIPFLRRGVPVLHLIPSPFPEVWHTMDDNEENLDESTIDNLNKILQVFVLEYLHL
# Assay Procedure: QC inhibition assay with fluorogenic substrate H-Gln-AMC (Ki)
# Assay type: biochemical
Kindly report the value followed by its unit.

- Cpd Smiles: "c1ccc2[nH]cnc2c1"
  Ki: "318 µM"

Alright, here's another compound for you.
Q. What Ki value was documented for this compound, c1ccc(Cn2ccnc2)cc1 ?
A. 16.8 µM
